B1: USP39 (parent)
chain: FQGSMRIFTKKLPHPDLPAEEKEQ

- Variants of: B1
- Test Summary: protein stability index of a GFP-peptide fusion (GPS, HEK-293T) (PSI 1-6); higher = more stable;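 further: lentivirally expressed fusions sorted by FACS into six bins by GFP to DsRed ratio, PSI derived from sequencing read proportions per bin multiplied by bin number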
- Cond: c terminus: a fixed tail appended
Assay Endpoint: protein stability index
Numbers only.

Please review the entries below; each comes with its answer.
# Mutation Key, protein stability index
records = [
    ("L12Q", 2.23),
    ("Q24P", 1.83),
    ("P18R", 1.88),
    ("K11S", 1.9),
    ("P13Y", 1.62),
]

Give me protein stability index for each of these variants, listed below.
1. P18L
2. K22R
3. K10A
4. P15K
5. P15W
6. E23A
7. E21H
8. E21T

1.75
2.54
2.08
1.76
1.48
1.65
2.25
2.01
